test system: SF-268; assay: NCI tumour cell line growth inhibition, 48 h
Active and inactive are the calls of the source. Rule as the data show it: active = GI50 up to about 1.1 µM and inactive = higher.
READOUT KIND: GI50

>>> readout_value("O=C1C2Cc3c(n(C(=O)c4ccccc4)c4ccccc34)CC2C(=O)N1c1ccc(Nc2ccc(N3C(=O)C4Cc5c(n(C(=O)c6ccccc6)c6ccccc56)CC4C3=O)cc2)cc1 (stereo not drawn)")
"> 100 µM (inactive)"

## Task Entry under review: `O=C1c2cc3ncsc3cc2C(=O)c2c(O)ccc(O)c21` . Reported GI50?
## Result > 100 µM (inactive)

## Task Same again, this time with c1ccc(C[N+]23C(CC[C@H]2c2ccccc2)CC[C@H]3c2ccccc2)cc1 (stereo partly drawn)
## Result 43.5 µM (inactive)

## Task Same again, this time with `O=C(O)[C@H]1CCCN1CP(=O)(O)CN1CCC[C@@H]1C(=O)O`
## Result > 100 µM (inactive)

## Task Same again, this time with CC(=O)O[C@H]1C[C@](C)(O)[C@@]23CC([C@@H](OC(=O)C(C)(C)O)[C@@H](OC(C)=O)C2(COC(=O)c2ccccc2)[C@H]1OC(C)=O)C(C)(C)O3 (stereo partly drawn)
## Result > 100 µM (inactive)

## Task Same again, this time with `C=Nc1ccc([N+](=O)[O-])cc1`
## Result > 100 µM (inactive)

## Task Same again, this time with C#CC1(O)CCC2C3CCc4cc(Oc5nc(F)nc(-c6c7ccccc7c7sc8ccccc8n67)n5)ccc4C3CC[C@@]21C (stereo partly drawn)
## Result > 100 µM (inactive)

## Task Same again, this time with `CC(C)OC(=O)NNc1cccc(Cl)c1`
## Result > 100 µM (inactive)

## Task Same again, this time with O=C(Nc1ccn(C2CCC(CO)O2)c(=O)n1)c1ccccc1 (stereo not drawn)
## Result > 100 µM (inactive)

Attribution: ChEMBL document CHEMBL1201862
